# % inhibition listing for each entry below
Target: α-D-mannosidase (Canavalia ensiformis)
Construct: purchased Sigma Aldrich Chemicals Limited
Sequence (C0HJB3 whole entry): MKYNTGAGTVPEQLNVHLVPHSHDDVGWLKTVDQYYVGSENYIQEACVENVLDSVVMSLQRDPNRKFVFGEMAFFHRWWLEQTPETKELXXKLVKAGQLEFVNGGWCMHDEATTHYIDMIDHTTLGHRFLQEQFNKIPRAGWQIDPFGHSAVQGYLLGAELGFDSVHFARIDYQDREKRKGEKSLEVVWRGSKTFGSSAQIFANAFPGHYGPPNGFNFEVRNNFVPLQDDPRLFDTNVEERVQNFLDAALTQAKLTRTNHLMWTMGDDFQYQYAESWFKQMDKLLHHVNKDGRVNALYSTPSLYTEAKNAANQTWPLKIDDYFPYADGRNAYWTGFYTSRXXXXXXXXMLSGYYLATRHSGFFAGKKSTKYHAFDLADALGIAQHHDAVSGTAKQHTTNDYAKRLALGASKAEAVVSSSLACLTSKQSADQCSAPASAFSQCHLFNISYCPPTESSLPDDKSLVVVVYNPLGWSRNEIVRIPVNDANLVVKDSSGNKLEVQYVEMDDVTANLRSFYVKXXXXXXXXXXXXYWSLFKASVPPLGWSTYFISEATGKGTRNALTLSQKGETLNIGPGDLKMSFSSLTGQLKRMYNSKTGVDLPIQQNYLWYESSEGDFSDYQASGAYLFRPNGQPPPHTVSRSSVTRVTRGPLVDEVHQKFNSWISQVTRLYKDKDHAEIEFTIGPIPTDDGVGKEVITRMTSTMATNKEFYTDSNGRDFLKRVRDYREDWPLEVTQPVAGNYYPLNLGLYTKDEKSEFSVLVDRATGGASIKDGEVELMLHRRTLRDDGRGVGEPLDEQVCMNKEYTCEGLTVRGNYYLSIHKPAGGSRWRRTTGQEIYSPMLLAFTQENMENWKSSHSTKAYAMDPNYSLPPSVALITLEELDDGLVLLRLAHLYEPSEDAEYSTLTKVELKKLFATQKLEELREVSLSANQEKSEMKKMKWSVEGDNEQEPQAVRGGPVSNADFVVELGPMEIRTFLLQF
Assay: Glycosidase assay, p-nitrophenyl substrate
Format: biochemical
Conditions: Jack bean enzyme; screened at 0.14 mg mL−1 (footnote: 0.4 mM)
Only the number, expressed in %, is required.

Smiles | Target desc | Result units | Val
CN1C[C@@H](CO)C[C@H]1C(=O)O | α-D-mannosidase (Canavalia ensiformis) | % | 18
OC[C@H]1N[C@H](CO)[C@@H](O)[C@@H]1O | α-D-mannosidase (Canavalia ensiformis) | % | 2.70
CN1C[C@](O)(CO)C[C@H]1C(=O)O | α-D-mannosidase (Canavalia ensiformis) | % | 6

Now turn to the next compound.
q: Item under review: `OC[C@H]1NC[C@H](O)[C@@H](O)[C@@H]1O` . Reported % inhibition?
a: 26.65

Numbers sourced from patent US20260078089A1.
